target: Mitogen-activated protein kinase 3 (Homo sapiens); test: Inhibition of human recombinant GST-tagged ERK1 expressed in Escherichia coli using ser/thr 3 Peptide as substrate preincubated for 1 hr measured after 1 hr by Z-LYTE assay
Sequence (P27361 whole entry): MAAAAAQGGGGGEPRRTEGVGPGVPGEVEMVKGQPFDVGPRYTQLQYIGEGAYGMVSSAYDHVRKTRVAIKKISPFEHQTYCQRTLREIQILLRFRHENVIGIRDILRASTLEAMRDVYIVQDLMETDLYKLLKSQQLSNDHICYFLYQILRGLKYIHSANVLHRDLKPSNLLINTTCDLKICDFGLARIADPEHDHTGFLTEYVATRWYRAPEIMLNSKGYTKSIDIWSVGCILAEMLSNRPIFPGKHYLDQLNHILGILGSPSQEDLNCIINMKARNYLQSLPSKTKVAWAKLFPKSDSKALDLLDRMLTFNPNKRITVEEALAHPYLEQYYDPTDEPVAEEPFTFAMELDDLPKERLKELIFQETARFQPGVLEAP
pIC50: −log10 of the molar value.
Measured pIC50 by item
recorded-endpoint: pIC50

* O=C(NC(CO)c1cccc(Cl)c1)c1ccc2[nH]nc(-c3ccc(O)c(F)c3)c2c1 (stereo not given) | 6.95
* CC(NC(=O)c1ccc2[nH]nc(-c3ccncc3)c2c1)c1ccccc1Cl (stereo not given) | 7.44
* Cc1cc(-c2n[nH]c3ccc(C(=O)NC(C)c4c(Cl)cnc(Cl)c4Cl)cc23)ccn1 (stereo not given) | 7.65
* CC(CNC(=O)c1ccc2[nH]nc(-c3ccncc3)c2c1)Oc1ccccc1 (stereo not given) | 6.89
* CCC(NC(=O)c1ccc2[nH]nc(-c3ccncc3)c2c1)c1cccc(Cl)c1 (stereo not given) | 7.10
* O=C(N[C@H](CO)c1cccc(Cl)c1)c1ccc2[nH]nc(-c3ccncc3)c2c1 | 7.58
* Cc1cc(-c2n[nH]c3ccc(C(=O)NC(C)c4c(Cl)cncc4Cl)cc23)ccn1 (stereo not given) | 7.53
* O=C(N[C@@H](CO)c1cccc(Cl)c1)c1ccc2[nH]nc(-c3ccncc3)c2c1 | 6.08
* O=C(NCCc1ccccc1)c1ccc2[nH]nc(-c3ccncc3)c2c1 | 7.41
* Cc1cc(-c2n[nH]c3ccc(C(=O)N[C@@H](C)c4c(Cl)cccc4Cl)cc23)ccn1 | 7.71
* O=C(NC(CO)c1cccc(Cl)c1)c1ccc2[nH]nc(-c3ccncc3)c2c1 (stereo not given) | 7.14
* O=C(NCCCc1ccccc1)c1ccc2[nH]nc(-c3ccncc3)c2c1 | 7.37
* O=C(NCc1ccc(Cl)c(F)c1Cl)c1ccc2[nH]nc(-c3ccncc3)c2c1 | 7.53
* Cc1cc(-c2n[nH]c3ccc(C(=O)NCc4c(Cl)cnc(Cl)c4Cl)cc23)ccn1 | 7.78
* O=C(NCc1cccc(Cl)c1)c1ccc2[nH]nc(-c3ccncc3)c2c1 | 7.13
* O=C(NCc1ccccc1)c1ccc2[nH]nc(-c3ccncc3)c2c1 | 6.97
* Nc1cc(-c2n[nH]c3ccc(C(=O)NC(CO)c4cccc(Cl)c4)cc23)ccn1 (stereo not given) | 7.17
* O=C(NCc1ccccc1Cl)c1ccc2[nH]nc(-c3ccncc3)c2c1 | 7.33
* Cc1cc(-c2n[nH]c3ccc(C(=O)NC(CO)c4cccc(Cl)c4)cc23)ccn1 (stereo not given) | 7.27
* O=C(NCc1ccnc(Cl)c1)c1ccc2[nH]nc(-c3ccncc3)c2c1 | 7.58
